# inhibition at 10 µM values compiled below
biological target: N-type Ca2+ channels in IMR-32 cells (Homo sapiens, UniProt Q00975); construct: host or cells: IMR-32 cells, differentiated with dibutyryl cAMP and bromodeoxyuridine; assay: Inhibition of N-type calcium flux in IMR-32 cells (Indo-1 fluorescence, nitrendipine present); type: cell-based; settings: IMR-32
Sequence (Q00975 whole entry): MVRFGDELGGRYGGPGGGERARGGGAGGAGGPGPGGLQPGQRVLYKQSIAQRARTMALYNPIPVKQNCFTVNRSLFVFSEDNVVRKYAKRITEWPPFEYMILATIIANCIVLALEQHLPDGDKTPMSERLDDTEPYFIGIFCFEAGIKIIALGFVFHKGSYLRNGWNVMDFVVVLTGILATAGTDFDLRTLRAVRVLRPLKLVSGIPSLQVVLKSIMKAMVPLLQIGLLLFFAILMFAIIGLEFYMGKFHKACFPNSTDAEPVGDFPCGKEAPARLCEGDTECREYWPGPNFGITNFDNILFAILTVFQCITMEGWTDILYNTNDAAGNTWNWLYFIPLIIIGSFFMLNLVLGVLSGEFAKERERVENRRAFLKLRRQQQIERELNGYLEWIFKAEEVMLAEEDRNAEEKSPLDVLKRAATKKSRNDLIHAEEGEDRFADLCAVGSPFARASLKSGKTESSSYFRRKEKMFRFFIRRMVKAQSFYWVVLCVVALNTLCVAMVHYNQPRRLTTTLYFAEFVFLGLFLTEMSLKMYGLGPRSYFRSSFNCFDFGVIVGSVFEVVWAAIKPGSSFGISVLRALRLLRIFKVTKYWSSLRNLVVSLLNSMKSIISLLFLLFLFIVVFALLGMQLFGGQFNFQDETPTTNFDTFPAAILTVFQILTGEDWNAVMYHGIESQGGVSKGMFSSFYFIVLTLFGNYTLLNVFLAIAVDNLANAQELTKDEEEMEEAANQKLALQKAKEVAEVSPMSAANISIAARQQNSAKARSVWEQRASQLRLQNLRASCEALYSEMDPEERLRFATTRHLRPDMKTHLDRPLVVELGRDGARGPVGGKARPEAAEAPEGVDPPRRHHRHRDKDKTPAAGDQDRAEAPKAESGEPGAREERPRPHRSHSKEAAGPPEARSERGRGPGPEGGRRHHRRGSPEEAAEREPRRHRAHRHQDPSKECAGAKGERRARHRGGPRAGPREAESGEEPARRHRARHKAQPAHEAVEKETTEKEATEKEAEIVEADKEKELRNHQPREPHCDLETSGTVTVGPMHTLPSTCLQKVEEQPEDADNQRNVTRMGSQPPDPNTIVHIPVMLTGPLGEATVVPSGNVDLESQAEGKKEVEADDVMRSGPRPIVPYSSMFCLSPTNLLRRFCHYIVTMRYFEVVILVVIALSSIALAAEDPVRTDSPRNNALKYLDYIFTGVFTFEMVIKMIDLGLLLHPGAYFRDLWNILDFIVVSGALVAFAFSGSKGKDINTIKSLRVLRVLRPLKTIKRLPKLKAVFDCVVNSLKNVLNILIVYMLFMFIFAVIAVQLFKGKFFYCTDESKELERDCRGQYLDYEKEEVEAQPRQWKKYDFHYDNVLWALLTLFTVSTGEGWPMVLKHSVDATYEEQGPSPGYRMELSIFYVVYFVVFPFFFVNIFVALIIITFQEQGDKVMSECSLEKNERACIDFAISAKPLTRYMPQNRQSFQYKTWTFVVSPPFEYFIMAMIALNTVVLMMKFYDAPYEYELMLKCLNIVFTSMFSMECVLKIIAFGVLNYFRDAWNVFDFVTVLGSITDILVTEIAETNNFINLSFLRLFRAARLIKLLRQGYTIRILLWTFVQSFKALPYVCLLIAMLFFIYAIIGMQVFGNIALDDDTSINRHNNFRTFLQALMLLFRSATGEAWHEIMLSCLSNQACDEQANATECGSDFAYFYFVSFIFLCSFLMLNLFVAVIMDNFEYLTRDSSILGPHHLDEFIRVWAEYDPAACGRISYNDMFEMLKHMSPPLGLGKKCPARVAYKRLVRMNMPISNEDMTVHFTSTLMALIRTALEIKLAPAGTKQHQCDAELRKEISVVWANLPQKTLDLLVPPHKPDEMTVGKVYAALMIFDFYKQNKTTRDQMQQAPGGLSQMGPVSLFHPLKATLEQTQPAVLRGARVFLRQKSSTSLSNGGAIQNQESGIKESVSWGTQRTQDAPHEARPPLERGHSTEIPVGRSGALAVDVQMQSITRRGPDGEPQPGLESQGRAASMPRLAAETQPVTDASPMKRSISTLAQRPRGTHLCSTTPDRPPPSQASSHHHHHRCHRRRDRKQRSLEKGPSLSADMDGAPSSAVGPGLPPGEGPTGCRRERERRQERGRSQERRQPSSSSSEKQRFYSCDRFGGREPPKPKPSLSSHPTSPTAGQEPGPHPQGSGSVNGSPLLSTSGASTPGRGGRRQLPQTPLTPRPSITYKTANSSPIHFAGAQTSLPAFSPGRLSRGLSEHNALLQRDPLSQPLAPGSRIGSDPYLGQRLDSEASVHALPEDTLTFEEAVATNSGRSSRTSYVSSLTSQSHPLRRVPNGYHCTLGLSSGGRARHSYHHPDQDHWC
Sequence (P54289 25-956 partner limits assumed): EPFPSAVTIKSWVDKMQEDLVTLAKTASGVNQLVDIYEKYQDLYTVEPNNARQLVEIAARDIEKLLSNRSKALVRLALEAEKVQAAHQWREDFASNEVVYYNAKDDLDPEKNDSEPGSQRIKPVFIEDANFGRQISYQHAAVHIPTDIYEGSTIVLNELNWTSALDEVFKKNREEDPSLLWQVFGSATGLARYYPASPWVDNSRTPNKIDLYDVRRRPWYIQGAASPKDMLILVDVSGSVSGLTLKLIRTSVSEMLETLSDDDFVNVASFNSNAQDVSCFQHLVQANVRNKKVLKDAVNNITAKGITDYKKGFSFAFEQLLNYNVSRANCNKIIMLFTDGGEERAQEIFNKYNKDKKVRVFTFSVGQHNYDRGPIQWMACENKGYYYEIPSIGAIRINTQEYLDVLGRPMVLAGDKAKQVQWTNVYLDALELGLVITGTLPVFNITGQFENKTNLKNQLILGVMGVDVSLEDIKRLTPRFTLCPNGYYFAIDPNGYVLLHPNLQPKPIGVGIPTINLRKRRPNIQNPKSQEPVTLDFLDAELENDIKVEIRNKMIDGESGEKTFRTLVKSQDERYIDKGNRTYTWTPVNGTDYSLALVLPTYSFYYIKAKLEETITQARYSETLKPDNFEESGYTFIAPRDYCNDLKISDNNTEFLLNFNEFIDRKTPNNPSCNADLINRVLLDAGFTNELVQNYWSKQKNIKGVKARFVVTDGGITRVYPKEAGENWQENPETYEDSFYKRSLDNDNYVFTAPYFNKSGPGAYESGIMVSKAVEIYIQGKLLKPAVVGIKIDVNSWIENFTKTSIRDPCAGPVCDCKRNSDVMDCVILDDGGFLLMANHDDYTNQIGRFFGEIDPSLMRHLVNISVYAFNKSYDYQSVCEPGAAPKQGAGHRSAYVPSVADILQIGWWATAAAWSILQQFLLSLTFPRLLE
Sequence (P54289 957-1103 partner limits assumed): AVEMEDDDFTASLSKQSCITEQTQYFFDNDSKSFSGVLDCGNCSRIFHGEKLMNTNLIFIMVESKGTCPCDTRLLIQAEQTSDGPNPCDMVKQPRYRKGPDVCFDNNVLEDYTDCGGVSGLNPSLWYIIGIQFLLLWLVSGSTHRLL
Sequence (P54284 whole entry partner): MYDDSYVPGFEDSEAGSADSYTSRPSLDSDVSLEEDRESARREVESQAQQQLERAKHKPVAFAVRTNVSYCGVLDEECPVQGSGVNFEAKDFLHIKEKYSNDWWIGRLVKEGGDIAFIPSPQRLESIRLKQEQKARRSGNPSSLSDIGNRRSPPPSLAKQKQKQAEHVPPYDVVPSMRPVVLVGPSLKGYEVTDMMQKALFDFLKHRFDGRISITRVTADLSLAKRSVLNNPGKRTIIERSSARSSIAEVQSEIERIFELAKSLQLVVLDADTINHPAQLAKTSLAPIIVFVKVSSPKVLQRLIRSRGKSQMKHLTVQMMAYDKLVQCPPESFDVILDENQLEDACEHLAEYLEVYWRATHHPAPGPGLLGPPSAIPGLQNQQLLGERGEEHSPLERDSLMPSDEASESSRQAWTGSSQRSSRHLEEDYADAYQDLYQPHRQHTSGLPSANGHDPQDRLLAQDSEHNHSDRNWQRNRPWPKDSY
Return type: number; implicit unit %.

Worked cases, answers included:
>  <COMPOUND>
CCC(C)[C@H](NC(=O)N1CCCCCC1)C(=O)N[C@@H](Cc1ccc(OCc2ccccc2)cc1)C(=O)OC(C)(C)C (stereo partly drawn) [Example 5]

>  <UNIT_ABBREV>
%

>  <inhibition at 10 µM>
94

$$$$
>  <COMPOUND>
CCC(COC)NC(=O)C(Cc1ccc(OCc2ccccc2)cc1)NC(=O)C(CC(C)C)NC(=O)N1CCCCCC1 (stereo not drawn) [Example 245]

>  <UNIT_ABBREV>
%

>  <inhibition at 10 µM>
89

$$$$
>  <COMPOUND>
CC(C)C[C@H](NC(=O)N1CCCCCC1)C(=O)N[C@@H](Cc1ccc(OCc2ccncc2)cc1)C(=O)OC(C)(C)C [Example 26]

>  <UNIT_ABBREV>
%

>  <inhibition at 10 µM>
84

$$$$
>  <COMPOUND>
CC(C)C[C@H](NC(=O)N1CCCCCC1)C(=O)N[C@@H](Cc1ccc(OCC2CCCCC2)cc1)C(=O)OC(C)(C)C [Example 30]

>  <UNIT_ABBREV>
%

>  <inhibition at 10 µM>
83

$$$$
>  <COMPOUND>
CC(C)C[C@H](NC(=O)N1CCCCCC1)C(=O)N[C@@H](Cc1ccc(OCc2ccccn2)cc1)C(=O)OC(C)(C)C [Example 25]

>  <UNIT_ABBREV>
%

>  <inhibition at 10 µM>
82

$$$$

Lab note: measured inhibition at 10 µM of CC(C)C[C@H](NC(=O)N1CCN(c2ccccc2)CC1)C(=O)N[C@@H](Cc1ccc(OCc2ccccc2)cc1)C(=O)OC(C)(C)C [Example 10] was 73
